The measurements presented in this section are drawn from ChEMBL document CHEMBL3526036.

Test: Octanol-water apparent partition coefficient, logD of the compound at pH 7.4
Format: physicochemical
Details: read-out: LogD7.4

| Compound | logD |
| --- | --- |
| Cc1cc(=O)n(-c2ccccc2)n1C [ANTIPYRINE] | 0.33 |

====

Assay: Extraction ratio of the compound in perfused liver of high-fat emulsion-induced nonalcoholic steatohepatitis Wistar rat at 4 mM after 10 mins
Format: ADME, tissue-based
Conditions: read-out: ERH
Endpoint: hepatic extraction ratio at 10 min, 4000 µM

| Compound | Result |
| --- | --- |
| Cc1cc(=O)n(-c2ccccc2)n1C [ANTIPYRINE] | 0.08 |
